Sourced from patent US20250340630A1

# system: human Claudin18.2 (human, UniProt P56856-2 1-261)
# experimental-details: cell-based or functional assay
test-readout: ADCC Max killing rate %, Ba/F3-Claudin18.2 target cells (%)

binder: humanized antibody 1E9.2-hz13 (antibody, human IgG1, kappa, V domains shown, Human IgG1 / kappa constant regions) VH: EVQLVESGGGLVKPGGSLRLSCAASGFSFSNSAMSWVRQAPGKGLEWVSTISSGDSYTYYADSVKGRFTISRDNAKNSLYLQMNSLRAEDTAVYYCARQGYGNALDYWGQGTLVTVSS VL: DIVMTQSPDSLAVSLGERATINCKSSQSLLQSGNQKNYLTWYQQKPGQPPKLLIYWSSTRESGVPDRFSGSGSGTDFTLTISSLQAEDVAVYYCQNDYYYPLTFGGGTKVEIKR
measure-unit: %
reported-measurement: 63.8
//
binder: humanized antibody 1E9.2-hz12 (antibody, human IgG1, kappa, V domains shown, Human IgG1 / kappa constant regions) VH: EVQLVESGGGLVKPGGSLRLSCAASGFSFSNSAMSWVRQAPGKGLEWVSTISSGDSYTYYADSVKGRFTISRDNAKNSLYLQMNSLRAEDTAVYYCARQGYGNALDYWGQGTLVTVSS VL: DIVMTQSPDSLAVSLGERATINCKSSQSLLQSGNQKNYLTWYQQKPGQPPKLLIYWSSTRESGVPDRFSGSGSGTDFTLTISSLQAEDFAVYYCQNDYYYPLTFGGGTKVEIKR
measure-unit: %
reported-measurement: 64.4
//
binder: humanized antibody 1E9.2-hz15 (antibody, human IgG1, kappa, V domains shown, Human IgG1 / kappa constant regions) VH: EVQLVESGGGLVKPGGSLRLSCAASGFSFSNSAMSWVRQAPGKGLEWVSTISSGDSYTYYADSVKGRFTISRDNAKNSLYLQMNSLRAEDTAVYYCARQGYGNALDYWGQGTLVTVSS VL: DIVMTQTPLSLPVTPGEPASISCKSSQSLLNSGNQKNYLTWYLQKPGQSPQLLIYWSSTRESGVPDRFSGSGSGTDFTLKISRVEAEDFGVYYCQNDYYYPLTFGGGTKVEIKR
measure-unit: %
reported-measurement: 66.2
//
binder: humanized antibody 1E9.2-hz14 (antibody, human IgG1, kappa, V domains shown, Human IgG1 / kappa constant regions) VH: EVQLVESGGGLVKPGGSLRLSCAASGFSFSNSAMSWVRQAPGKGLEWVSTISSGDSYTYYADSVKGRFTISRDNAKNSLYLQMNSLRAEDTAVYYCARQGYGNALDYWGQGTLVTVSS VL: DIVMTQSPDSLAVSLGERATINCKSSQSLLQSGNNKNYLTWYQQKPGQPPKLLIYWSSTRESGVPDRFSGSGSGTDFTLTISSLQAEDFAVYYCQNDYYYPLTFGGGTKVEIKR
measure-unit: %
reported-measurement: 60.5
